# Tested on: Escherichia coli TOP10
# assay protocol: shrunken log2 fold change of peptide-encoding DNA abundance (4.5 h post-induction vs induction); higher = less antimicrobial activity (less host growth inhibition)
# condition info: time post-induction: 4.5 h; library: site-saturation at positions 5, 18, 19, 20
attribute measured: shrunken log2 fold change

# sequence string, test value
rows = [
    ("RRIRWRPPRLPRPRPRPCYCPRP", -0.247),
    ("RRIRRRPPRLPRPRPRPNTKPRP", 0.191),
    ("RRIRYRPPRLPRPRPRPYMGPRP", -0.019),
    ("RRIRGRPPRLPRPRPRPRTTPRP", 1.06),
    ("RRIRERPPRLPRPRPRPFCRPRP", -0.0911),
    ("RRIRNRPPRLPRPRPRPHQHPRP", -0.654),
    ("RRIRFRPPRLPRPRPRPFIMPRP", -0.655),
    ("RRIRSRPPRLPRPRPRPKHDPRP", -0.0942),
    ("RRIRVRPPRLPRPRPRPTFLPRP", -0.0973),
    ("RRIRFRPPRLPRPRPRPYFGPRP", -1.15),
    ("RRIRFRPPRLPRPRPRPWVVPRP", 0.0143),
    ("RRIRSRPPRLPRPRPRPEVKPRP", 0.287),
    ("RRIRIRPPRLPRPRPRPWGHPRP", -0.0191),
    ("RRIRWRPPRLPRPRPRPMWVPRP", -0.0542),
    ("RRIRARPPRLPRPRPRPQYMPRP", -0.112),
    ("RRIRLRPPRLPRPRPRPKEEPRP", -0.0533),
    ("RRIRDRPPRLPRPRPRPCGNPRP", 0.104),
    ("RRIRWRPPRLPRPRPRPEWTPRP", 0.0673),
    ("RRIRNRPPRLPRPRPRPTLPPRP", 0.149),
    ("RRIRVRPPRLPRPRPRPTETPRP", 0.0324),
    ("RRIRYRPPRLPRPRPRPMWPPRP", 0.158),
    ("RRIRDRPPRLPRPRPRPDDCPRP", -0.00963),
    ("RRIRQRPPRLPRPRPRPNVLPRP", -0.0544),
    ("RRIRLRPPRLPRPRPRPMMMPRP", -0.114),
    ("RRIRMRPPRLPRPRPRPIEMPRP", -0.0608),
    ("RRIRPRPPRLPRPRPRPHEIPRP", -0.192),
    ("RRIRARPPRLPRPRPRPLPFPRP", -0.249),
    ("RRIRQRPPRLPRPRPRPPNLPRP", -0.00283),
    ("RRIRARPPRLPRPRPRPAKAPRP", 0.332),
    ("RRIRSRPPRLPRPRPRPRDNPRP", -0.0866),
    ("RRIRDRPPRLPRPRPRPGDFPRP", -0.017),
    ("RRIRHRPPRLPRPRPRPHWEPRP", -0.211),
    ("RRIRHRPPRLPRPRPRPAFWPRP", 0.741),
    ("RRIRIRPPRLPRPRPRPYKFPRP", -0.616),
    ("RRIRGRPPRLPRPRPRPSGGPRP", 0.391),
    ("RRIRGRPPRLPRPRPRPDVFPRP", 0.438),
    ("RRIRYRPPRLPRPRPRPLNRPRP", -1.92),
    ("RRIRIRPPRLPRPRPRPTFTPRP", -0.373),
    ("RRIRPRPPRLPRPRPRPRPQPRP", 0.634),
    ("RRIRCRPPRLPRPRPRPAESPRP", 0.0971),
    ("RRIRVRPPRLPRPRPRPTFRPRP", 0.218),
    ("RRIRRRPPRLPRPRPRPCVDPRP", 0.163),
    ("RRIRRRPPRLPRPRPRPNGVPRP", 0.00234),
    ("RRIRIRPPRLPRPRPRPNTPPRP", -0.487),
    ("RRIRPRPPRLPRPRPRPVMQPRP", 0.136),
    ("RRIRGRPPRLPRPRPRPDFLPRP", 0.318),
    ("RRIRVRPPRLPRPRPRPRWHPRP", 0.217),
    ("RRIRGRPPRLPRPRPRPIHRPRP", 0.0525),
    ("RRIRLRPPRLPRPRPRPRLFPRP", 0.17),
    ("RRIRLRPPRLPRPRPRPTETPRP", -0.021),
    ("RRIRFRPPRLPRPRPRPYKQPRP", -0.83),
    ("RRIRMRPPRLPRPRPRPCKGPRP", -0.0617),
    ("RRIRDRPPRLPRPRPRPIVLPRP", -0.176),
    ("RRIRLRPPRLPRPRPRPTQTPRP", -0.0101),
    ("RRIRMRPPRLPRPRPRPWSTPRP", -0.144),
    ("RRIRSRPPRLPRPRPRPMQAPRP", 0.0325),
    ("RRIRNRPPRLPRPRPRPFRPPRP", -0.215),
    ("RRIRKRPPRLPRPRPRPICPPRP", -0.122),
    ("RRIRERPPRLPRPRPRPNFPPRP", -0.169),
    ("RRIRCRPPRLPRPRPRPGQRPRP", 0.0965),
    ("RRIRIRPPRLPRPRPRPQQCPRP", -0.211),
    ("RRIRRRPPRLPRPRPRPMITPRP", -0.172),
    ("RRIRIRPPRLPRPRPRPDGDPRP", -0.176),
]

###

# System: Escherichia coli TOP10;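 further: peptides expressed intracellularly from a pBAD plasmid library in pooled LB shake-flask culture, induced with 0.3% L-arabinose, DNA abundance read by NGS, three biological replicates, DESeq2 with apeglm shrinkage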
# assay protocol: shrunken log2 fold change of peptide-encoding DNA abundance (4.5 h post-induction vs induction); higher = less antimicrobial activity (less host growth inhibition)
# condition info: time post-induction: 4.5 h; library: site-saturation at positions 5, 18, 19, 20
attribute measured: shrunken log2 fold change

# sequence string, test system, test value
rows = [
    ("RRIRHRPPRLPRPRPRPKPPPRP", "Escherichia coli TOP10", 0.55),
    ("RRIRWRPPRLPRPRPRPTKYPRP", "Escherichia coli TOP10", -0.124),
    ("RRIRCRPPRLPRPRPRPKQWPRP", "Escherichia coli TOP10", -0.0437),
    ("RRIRNRPPRLPRPRPRPEWKPRP", "Escherichia coli TOP10", 0.0303),
    ("RRIRYRPPRLPRPRPRPECDPRP", "Escherichia coli TOP10", -0.235),
    ("RRIRNRPPRLPRPRPRPVPKPRP", "Escherichia coli TOP10", 0.883),
    ("RRIRERPPRLPRPRPRPLLCPRP", "Escherichia coli TOP10", -0.183),
    ("RRIRKRPPRLPRPRPRPLNTPRP", "Escherichia coli TOP10", 0.143),
    ("RRIRARPPRLPRPRPRPKVSPRP", "Escherichia coli TOP10", 0.669),
    ("RRIRYRPPRLPRPRPRPHSTPRP", "Escherichia coli TOP10", -0.181),
    ("RRIRCRPPRLPRPRPRPCEMPRP", "Escherichia coli TOP10", -0.151),
    ("RRIRGRPPRLPRPRPRPQGHPRP", "Escherichia coli TOP10", 0.278),
    ("RRIRQRPPRLPRPRPRPDPVPRP", "Escherichia coli TOP10", 0.0565),
    ("RRIRCRPPRLPRPRPRPKMNPRP", "Escherichia coli TOP10", -0.415),
    ("RRIRMRPPRLPRPRPRPCSWPRP", "Escherichia coli TOP10", 0.0611),
    ("RRIRNRPPRLPRPRPRPASRPRP", "Escherichia coli TOP10", 0.12),
    ("RRIRYRPPRLPRPRPRPFPGPRP", "Escherichia coli TOP10", -0.253),
    ("RRIRPRPPRLPRPRPRPFCAPRP", "Escherichia coli TOP10", 0.0563),
    ("RRIRERPPRLPRPRPRPNYGPRP", "Escherichia coli TOP10", -0.0315),
    ("RRIRPRPPRLPRPRPRPFFRPRP", "Escherichia coli TOP10", -0.0565),
    ("RRIRARPPRLPRPRPRPMISPRP", "Escherichia coli TOP10", 0.501),
    ("RRIRDRPPRLPRPRPRPMREPRP", "Escherichia coli TOP10", -0.0167),
    ("RRIRARPPRLPRPRPRPWMEPRP", "Escherichia coli TOP10", -0.0866),
    ("RRIRQRPPRLPRPRPRPKREPRP", "Escherichia coli TOP10", 0.119),
    ("RRIRLRPPRLPRPRPRPPWMPRP", "Escherichia coli TOP10", 0.167),
    ("RRIRCRPPRLPRPRPRPTQFPRP", "Escherichia coli TOP10", 0.167),
    ("RRIRSRPPRLPRPRPRPNSVPRP", "Escherichia coli TOP10", -0.509),
    ("RRIRQRPPRLPRPRPRPVCEPRP", "Escherichia coli TOP10", -0.00878),
    ("RRIRNRPPRLPRPRPRPILHPRP", "Escherichia coli TOP10", -0.684),
    ("RRIRTRPPRLPRPRPRPGKMPRP", "Escherichia coli TOP10", 0.181),
    ("RRIRQRPPRLPRPRPRPACLPRP", "Escherichia coli TOP10", 0.14),
    ("RRIRYRPPRLPRPRPRPTVSPRP", "Escherichia coli TOP10", -0.288),
    ("RRIRPRPPRLPRPRPRPACRPRP", "Escherichia coli TOP10", 0.183),
    ("RRIRRRPPRLPRPRPRPSFLPRP", "Escherichia coli TOP10", -0.268),
    ("RRIRTRPPRLPRPRPRPIPPPRP", "Escherichia coli TOP10", 0.384),
    ("RRIRCRPPRLPRPRPRPKRNPRP", "Escherichia coli TOP10", 0.34),
    ("RRIRERPPRLPRPRPRPDEMPRP", "Escherichia coli TOP10", -0.0223),
    ("RRIRLRPPRLPRPRPRPLMEPRP", "Escherichia coli TOP10", -0.392),
    ("RRIRQRPPRLPRPRPRPTTNPRP", "Escherichia coli TOP10", -0.143),
    ("RRIRCRPPRLPRPRPRPWMLPRP", "Escherichia coli TOP10", -0.419),
    ("RRIRQRPPRLPRPRPRPMHRPRP", "Escherichia coli TOP10", -0.0558),
    ("RRIRKRPPRLPRPRPRPFAPPRP", "Escherichia coli TOP10", 0.792),
    ("RRIRNRPPRLPRPRPRPIWYPRP", "Escherichia coli TOP10", -0.0752),
    ("RRIRGRPPRLPRPRPRPMSDPRP", "Escherichia coli TOP10", 0.34),
    ("RRIRFRPPRLPRPRPRPNCQPRP", "Escherichia coli TOP10", -0.508),
    ("RRIRYRPPRLPRPRPRPYQKPRP", "Escherichia coli TOP10", -0.0257),
    ("RRIRPRPPRLPRPRPRPPWCPRP", "Escherichia coli TOP10", 0.0891),
    ("RRIRQRPPRLPRPRPRPMKIPRP", "Escherichia coli TOP10", -0.0609),
    ("RRIRTRPPRLPRPRPRPRERPRP", "Escherichia coli TOP10", 0.112),
    ("RRIRYRPPRLPRPRPRPHIWPRP", "Escherichia coli TOP10", -0.272),
    ("RRIRNRPPRLPRPRPRPGRTPRP", "Escherichia coli TOP10", 0.153),
    ("RRIRWRPPRLPRPRPRPWNSPRP", "Escherichia coli TOP10", 0.0293),
    ("RRIRSRPPRLPRPRPRPHISPRP", "Escherichia coli TOP10", -0.035),
    ("RRIRQRPPRLPRPRPRPDVDPRP", "Escherichia coli TOP10", -0.152),
    ("RRIRGRPPRLPRPRPRPTMNPRP", "Escherichia coli TOP10", 0.709),
    ("RRIRNRPPRLPRPRPRPIGHPRP", "Escherichia coli TOP10", -0.0117),
    ("RRIRSRPPRLPRPRPRPRIDPRP", "Escherichia coli TOP10", 0.0938),
    ("RRIRYRPPRLPRPRPRPGSGPRP", "Escherichia coli TOP10", -0.0839),
    ("RRIRGRPPRLPRPRPRPDFFPRP", "Escherichia coli TOP10", 1.1),
    ("RRIRHRPPRLPRPRPRPSKEPRP", "Escherichia coli TOP10", -0.0697),
    ("RRIRERPPRLPRPRPRPFSIPRP", "Escherichia coli TOP10", 0.00587),
    ("RRIRWRPPRLPRPRPRPSPDPRP", "Escherichia coli TOP10", 0.236),
    ("RRIRPRPPRLPRPRPRPPFAPRP", "Escherichia coli TOP10", 0.647),
]
